# method: Confirmation screen for delayed death inhibitors of the malarial parasite plastid, 48 hour incubation; further: nearly all actives have a fitted effect of over 65% in size
# measurement context: P. falciparum-infected erythrocytes, luciferase growth; series mostly up to 28.7 µM
Out of some 2,300 compounds screened, about 1,200 (52%) were called active. Inconclusive results (about 34%) are left out. The call rests on the fitted dose curve; in most records, active means well fitted inhibition curve with a large enough effect; inconclusive means small, poorly fitted or top-dose-only effect, or effect the other way; inactive means no such curve, though single readings can be large or run the other way. So high a share suggests a set chosen from earlier hits. The list shows a part of the results.
Lab note: assign the record to one of active, inactive

Recorded test call requested for `CCC(=O)NC(=S)Nc1ccc(NC(=O)c2ccc(C)c([N+](=O)[O-])c2)cc1`
active

Returns: the outcome recorded for `CN(C)CCn1c(=O)n(Cc2ccco2)c(=O)c2c3c(sc21)CCCCC3` in this assay.
active

What outcome does the record of this test show for `O=C(NNC(=O)c1ccc(Br)s1)c1ccc(F)c(S(=O)(=O)N2CCOCC2)c1` ?
inactive

Which result was noted for this molecule in the test: `CCC(=O)N1CCc2cc(S(=O)(=O)N3CCCCCC3)ccc21`
active

What was the test verdict on Cc1ccc(C2C3=C(CC(C)(C)CC3=O)N=C3c4ccccc4C(=O)C32)cc1 (stereo not given) ?
active

Given `CCOC(=O)Cn1c(S(=O)(=O)Cc2cccc(F)c2)nc(-c2ccccc2)c1-c1ccccc1` , state the outcome it received in this test.
active

Dear all, I need the recorded test outcome for `COC(=O)C1=CN(Cc2ccc(F)cc2)C=C(C(=O)OC)C1c1ccc(O)c(OC)c1` , thank you.
active

How did this test come out for `NC(=O)c1ccc(NC(=O)C#Cc2ccccc2)cc1` ?
active

Which outcome was entered for the molecule `CCOC(=O)c1c(NC(=O)c2c(-c3ccccc3)noc2C)sc(C)c1-c1ccccc1` in this test?
active

Status in this test for `Nc1[nH]nc2nc(NCc3ccccc3)c3c(c12)CCN(Cc1ccccc1)C3` ?
active

Please indicate how the test categorized `CCOC(=O)c1c(-c2ccc(F)cc2)csc1NC(=O)c1c(-c2ccccc2)noc1C` .
active

Just curious, what result did `CCOC(=O)C1CCN(C(=O)CCc2nnc3ccc(NCc4ccco4)nn23)CC1` get here?
active

Which outcome did this test record for the molecule CC(=O)N1CCc2cc(S(=O)(=O)N3CC(C)CC(C)C3)ccc21 (stereo not given) ?
active

What is the recorded call for this molecule in the test? `CCOC(=O)c1cc(-c2ccc(C)cc2)n(CCC(=O)NCCN(C)C)c1C`
active

Tell me the assay call for O=C1C2CCCN2C(c2ccccc2)N1c1ccc(Cl)cc1 (stereo not given) please.
inactive

* * *

# method: Confirmation screen for delayed death inhibitors of the malarial parasite plastid, 48 hour incubation; further: nearly all actives have a fitted effect of over 65% in size
# measurement context: P. falciparum-infected erythrocytes, luciferase growth; series mostly up to 28.7 µM
Among all 2,300 compounds or so, about 1,200 (52%) were called active. About 34% were inconclusive and are not listed. The call rests on the fitted dose curve; in most records, active means well fitted inhibition curve with a large enough effect; inconclusive means small, poorly fitted or top-dose-only effect, or effect the other way; inactive means no such curve, though single readings can be large or run the other way. So high a share suggests a set chosen from earlier hits. Some of the results follow.
Respond with a class label; see true (1) (active), false (0) (inactive)

Per the assay record, what outcome was assigned to CCCCN(CCCC)CCC(O)c1cc2c(Cl)cc(Cl)cc2c2cc(C(F)(F)F)ccc12 (configuration not stated) ?
true (1)

For this molecule, state the assay outcome: `CC(C)(C)c1ccc(C(=O)Nc2sc3c(c2C(=O)O)CCC3)cc1`
true (1)

Recorded test call requested for `C=CCNC(=S)N/N=C/c1ccc(-c2cc(Cl)ccc2Cl)o1`
true (1)

Entry OC1(c2cccs2)CN(c2ccc(Br)cc2)C2=[N+]1CCCS2 (configuration not stated) : call = ?
true (1)

In this assay, the call recorded for CCOc1ccc(N(C(=O)c2snc(C(N)=O)c2N)C(C(=O)NCC2CCCO2)c2c[nH]c3ccccc23)cc1 (configuration not stated) was what?
true (1)

Look up the recorded call for O=C(NCc1ccccc1)C(c1cccnc1)N(C(=O)c1ccccn1)c1ccccc1F (configuration not stated) in this test.
false (0)

Recorded test call requested for O=C(NCc1cccc(Cl)c1)C1CCC(=O)N(CC2CCCCC2)C1 (configuration not stated)
true (1)

Hi, sorry to bother you, what did the test record for `O=C(CCc1ccccc1)NNC(=O)c1ccccn1` ?
true (1)

Kindly provide the recorded test outcome for the following molecule: `COC(=O)c1c(-c2ccccc2)csc1NC(=O)c1c(-c2ccccc2)noc1C`
true (1)

Per the records of this test, what outcome belongs to `O=S(=O)(c1cccs1)N1CCN(c2ccnc3cc(Cl)ccc23)CC1` ?
true (1)

Check the results log: what was the call for `c1ccc2c(c1)Nc1cc3ccccc3cc1S2` ?
true (1)

Outcome? `CCc1cc(SC#N)ccc1N`
true (1)

Please state the recorded outcome for this molecule: `O=S(=O)(c1ccc(F)cc1)N1CCN(c2nc(-c3ccc(F)cc3)cs2)CC1`
true (1)

Assay outcome for `Nc1nnnn1/N=C/C(Br)=C/c1ccccc1` : what was it?
true (1)

Could you check what this test reported for `Cc1ccc(NC2=C/C(=N\S(=O)(=O)c3cccs3)c3ccccc3C2=O)c(C)c1` ?
true (1)

// outcome(item) with item = `COc1cc(NCc2ccc3nc(N)nc(N)c3c2C)cc(OC)c1OC`
true (1)

Check the results log: what was the call for `Cc1c(Cl)ccc2c(C(=O)O)cc(-c3ccccc3)nc12` ?
false (0)

* * *

# method: Confirmation screen for delayed death inhibitors of the malarial parasite plastid, 48 hour incubation; further: nearly all actives have a fitted effect of over 65% in size
# measurement context: P. falciparum-infected erythrocytes, luciferase growth; series mostly up to 28.7 µM
Screen size: about 2,300 compounds; about 1,200 (52%) were called active. Another 34% or so got no clear call; they are omitted. Calls come from the whole dose curve; as a rule, active = well fitted inhibition curve with a large enough effect; inconclusive = small, poorly fitted or top-dose-only effect, or effect the other way; inactive = no such curve, though single readings can be large or run the other way. The set was probably picked from earlier hits. Some of the results follow.
Write down the outcome that applies. Available outcomes: 1 (active), -1 (inactive)

What classification did `O=C(CSc1nnc(COc2ccccc2)n1-c1ccccc1)c1cccs1` end up with in this test?
1

Record request — test call for `O=C(N/N=C/c1ccccn1)c1cc([N+](=O)[O-])cc([N+](=O)[O-])c1`
1

Entry `Cc1ccc(Cl)cc1N1CCN(Cc2nc3c(c(=O)[nH]c(=O)n3C)n2CCc2ccccc2)CC1` : call = ?
1

Dear colleague, could you share the recorded outcome for `O=C(O)CCCCCNc1nc(-c2ccccc2)nc2ccccc12` when you have a moment?
1

Hi team, can someone confirm the assay call for `COc1ccc(Nc2nnc(-c3ccc(C)cc3)c3ccccc23)cc1C(=O)N1CCCCC1` ?
1

Query: recorded result category for `O=C1Nc2ccccc2/C1=C/C(=O)c1cccs1` in this test
-1

What classification did `COc1ccc(NC(=O)Cc2coc3cc(C)c(C(C)C)cc23)cc1S(=O)(=O)N1CCOCC1` end up with in this test?
1

Tell me the recorded outcome of this test for `NC(=S)Nn1c(-c2ccccc2)nc2ccccc2c1=O` .
-1

Entry `O=C(N/N=C(\CC(=O)c1cccs1)C(F)(F)F)c1ccncc1` : call = ?
-1

Give the logged outcome of this assay for the following compound: COc1ccc(N2CCN(C3CCCN(Cc4ccc(F)cc4)C3)CC2)cc1 (stereo not given)
1

For `CCOC(=O)c1c(C)sc2c1N(C(=O)CCl)c1cc(Cl)ccc1S2` , which call appears in the assay record?
1

Please let me know the test result on file for `O=C(Nc1ccccc1C(=O)Nc1ccccc1C(=O)O)c1ccccc1` .
-1

For this compound, state the assay outcome: `Cc1ccc2c(c1)cc(C(=O)NCc1ccccc1)n2C`
-1

For `CCCN1CCc2c(sc3nc(SCC)n(-c4ccc(OC)cc4)c(=O)c23)C1` , which call appears in the assay record?
1

Which outcome was entered for the compound `CCc1ccc(Nc2n[n+](-c3ccccc3)c(-c3cccc(Cl)c3Cl)s2)cc1` in this test?
1

Give the logged outcome of this assay for the following compound: Cc1ccc2[nH]c3c(c2c1)CCCC3NC(=O)CCl (stereo not given)
1

I'd appreciate the recorded outcome for `O=C(NC1CCN(Cc2ccccc2)CC1)C1CCN(c2nnc(-n3cccc3)s2)CC1` from this test.
1

Entry COc1cccc(/C=C2\SC(=S)N(CCC(=O)N3CCCCC3CCO)C2=O)c1 (stereo not given) : call = ?
1

Which result was noted for this compound in the test: COc1cccc(/C=C2\SC(=O)N(CCC(=O)NC3CCS(=O)(=O)C3)C2=O)c1 (stereo not given)
-1

So what was the verdict on `S=c1[nH]nc(-c2cc(-c3ccccc3)n[nH]2)n1/N=C/C(Br)=C/c1ccccc1` in this test?
1

Look up the recorded call for `Cc1cc(C)c2[nH]c(C(=O)N3CCC(n4nccc4NC(=O)C4CC4)CC3)c(C)c2c1` in this test.
1

I would be grateful if you could indicate the recorded call for `COc1ccc(CNC(=O)C[C@H]2C(=O)N(C3CCCCC3)C[C@@H]2Cc2ccccc2)cc1` .
1

Outcome? `COc1ccccc1-c1coc2cc(OC(=O)N3CCOCC3)ccc2c1=O`
-1

Per the assay record, what outcome was assigned to `CCNc1nc(NCC)n2c(SCC(=O)Nc3ccccc3F)nnc2n1` ?
1

Called result for `O=[N+]([O-])c1ccc(C[n+]2cccc3c4ccccc4ccc32)cc1`
1

Could you please tell me the result logged for `Cc1cc[n+]2cc(-c3cccc([N+](=O)[O-])c3)c(-c3cccc([N+](=O)[O-])c3)cc2c1` in this assay?
1

Look up the recorded call for `O=C1c2cc([N+](=O)[O-])cc3cc([N+](=O)[O-])cc(c23)C(=O)N1c1ccccn1` in this test.
1

Each compound tested received a call. Report the one for `O=C1c2ccccc2-n2c1nc1ccccc1c2=O` .
1

// return assay outcome for `CC(C)Cc1ccc(C(=O)Nc2ccc(Cc3ccncc3)cc2)o1`
1

Please let me know the test result on file for `Cc1cccc(NC(=O)CSc2nc3ccccc3nc2N2CCCCC2)c1` .
1
